MEASURED TARGET: [Pyruvate dehydrogenase (acetyl-transferring)] kinase isozyme 1, mitochondrial (Homo sapiens)
ASSAY INFO: Inhibition of PDK1 in human A549 cells assessed as reduction in phosphorylation of PDHE1 at S232 residue at 1 uM after 24 hrs by chemiluminescence/femtochemiluminescence method
Type: cell-based
Activity calls are given as the source filed them. The rule behind the calls is not given here.
Allowed answers: active, inactive

{"COMPOUND": "OCC1CN(C(=S)SSC(=S)N2CCOC(CO)C2)CCO1 (centres undefined)", "ANSWER LABEL": "inactive"}
{"COMPOUND": "CCOC[C@@H]1COCCN1C(=S)SSC(=S)N1CCOC[C@H]1COCC", "ANSWER LABEL": "active"}
{"COMPOUND": "CC1CN(C(=S)SSC(=S)N2CCOC(C)C2)CCO1 (centres undefined)", "ANSWER LABEL": "active"}
{"COMPOUND": "S=C(SSC(=S)N1CCCOCC1)N1CCCOCC1", "ANSWER LABEL": "active"}
{"COMPOUND": "COC[C@@H]1COCCN1C(=S)SSC(=S)N1CCOC[C@H]1COC", "ANSWER LABEL": "active"}

Query: What is the recorded call for this compound in the test? COCC1CN(C(=S)SSC(=S)N2CCOC(COC)C2)CCO1 (centres undefined)
Response: active

Query: What is the recorded call for this compound in the test? CC(=O)OCC1CN(C(=S)SSC(=S)N2CCOC(COC(C)=O)C2)CCO1 (centres undefined)
Response: active

Query: What is the recorded call for this compound in the test? COC(=O)C1CN(C(=S)SSC(=S)N2CCOC(C(=O)OC)C2)CCO1 (centres undefined)
Response: active

Query: What is the recorded call for this compound in the test? C[C@@H]1CN(C(=S)SSC(=S)N2C[C@@H](C)O[C@@H](C)C2)C[C@H](C)O1
Response: active

###

MEASURED TARGET: [Pyruvate dehydrogenase (acetyl-transferring)] kinase isozyme 1, mitochondrial (Homo sapiens, UniProt Q15118)
ASSAY INFO: Inhibition of full length His6-tagged PDK1 (unknown origin) expressed in Escherichia coli using full length His6-tagged PDHA1 as substrate in presence of GSH after 30 mins by ELISA
Calls of active or inactive are those of the source. The rule behind the calls is not given here.

{"RECORD SMILES": "S=C(SSC(=S)N1CCCOCC1)N1CCCOCC1", "inhibition": "inactive"}
{"RECORD SMILES": "COC[C@@H]1COCCN1C(=S)SSC(=S)N1CCOC[C@H]1COC", "inhibition": "inactive"}
{"RECORD SMILES": "S=C(SSC(=S)N1CCOCC1)N1CCOCC1", "inhibition": "inactive"}

###

MEASURED TARGET: [Pyruvate dehydrogenase (acetyl-transferring)] kinase isozyme 4, mitochondrial (Homo sapiens, UniProt Q16654)
Sequence (Q16654 whole entry): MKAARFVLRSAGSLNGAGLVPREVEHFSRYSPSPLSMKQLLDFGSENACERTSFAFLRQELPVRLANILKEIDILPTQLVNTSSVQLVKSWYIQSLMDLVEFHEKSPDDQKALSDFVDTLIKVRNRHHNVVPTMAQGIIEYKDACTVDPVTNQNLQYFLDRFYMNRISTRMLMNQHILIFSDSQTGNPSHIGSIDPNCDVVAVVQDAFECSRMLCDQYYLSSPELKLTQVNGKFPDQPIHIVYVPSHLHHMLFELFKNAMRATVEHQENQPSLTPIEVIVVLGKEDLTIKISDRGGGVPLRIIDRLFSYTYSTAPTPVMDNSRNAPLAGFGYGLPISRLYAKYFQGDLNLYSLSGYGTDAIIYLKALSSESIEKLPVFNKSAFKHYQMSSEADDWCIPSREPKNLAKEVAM
ASSAY ENDPOINT: IC50 (µM)
Field: numeric (µM). Do not append units.

Query: # return recorded IC50 for input O=C(O)C(Cl)Cl [DICHLOROACETIC ACID]
Response: 727

###

MEASURED TARGET: [Pyruvate dehydrogenase (acetyl-transferring)] kinase isozyme 3, mitochondrial (Homo sapiens)
Sequence (Q15120 whole entry): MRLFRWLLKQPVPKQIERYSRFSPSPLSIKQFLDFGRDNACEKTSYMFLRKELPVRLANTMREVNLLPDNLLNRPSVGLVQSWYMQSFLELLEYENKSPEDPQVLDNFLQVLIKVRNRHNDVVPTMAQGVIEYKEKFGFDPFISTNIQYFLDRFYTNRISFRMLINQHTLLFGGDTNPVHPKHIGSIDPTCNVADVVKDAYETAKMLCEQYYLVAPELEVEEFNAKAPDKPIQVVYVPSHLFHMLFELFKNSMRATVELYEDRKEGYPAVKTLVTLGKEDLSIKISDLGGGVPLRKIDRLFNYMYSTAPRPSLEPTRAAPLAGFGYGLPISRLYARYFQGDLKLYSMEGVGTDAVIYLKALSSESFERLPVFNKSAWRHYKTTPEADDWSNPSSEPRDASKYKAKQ
ASSAY ENDPOINT: pIC50
pIC50 here: minus log base 10 of the concentration, concentration in moles per litre.

Query: # return recorded pIC50 for input O=C(O)C(Cl)Cl
Response: 2.25
